# target-of-assay: T1, mouse big-ET-1 (SEQ ID NO:437) (Mus musculus, UniProt P22387)
# T1 sequence (P22387 53-91 limits assumed): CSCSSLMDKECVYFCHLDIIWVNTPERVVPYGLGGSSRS
# assay-notes: Surface plasmon resonance (Biacore) binding, mAb capture format, 37° C.
# conditions-used: analyte mouse big-ET-1, mAb capture, KD=kd/ka
pKd: −log10 of the molar value.
Would you kindly list pKd for each of these molecules?

In: Query (molecule): H1M6494N: anti-big-ET-1 hybridoma antibody, H1M Fc; HCVR/LCVR SEQ ID NO: 50/58 (antibody, V domains shown, mouse Fc) VH: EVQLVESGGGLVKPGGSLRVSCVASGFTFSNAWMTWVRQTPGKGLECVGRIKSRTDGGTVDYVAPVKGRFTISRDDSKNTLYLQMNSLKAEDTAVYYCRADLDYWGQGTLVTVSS VL: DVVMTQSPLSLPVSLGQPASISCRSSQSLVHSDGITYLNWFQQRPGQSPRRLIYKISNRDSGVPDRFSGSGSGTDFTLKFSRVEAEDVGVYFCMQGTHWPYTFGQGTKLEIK ; field requested: pKd
Out: < 6.00

In: Try the molecule H2M6490N: anti-big-ET-1 antibody, mouse IgG2 Fc; HCVR/LCVR SEQ ID NO: 18/26 (antibody, V domains shown, mouse IgG2 Fc) VH: EVQLLESGGGLVQPGGSLRLSCAASGFTFSSYAMTWVRQAPGKGLECISAISGSGYSTYYADSMKGRFSISRDNSKNTLYLQMNRLRAEDTAVYYCTKGGRILEWLLPFDFWGQGTLVTVSS VL: DVVMTQSPLSLPVTLGQPASISCRSSQSLVYSDGNTYLIWFQQRPGQSPRRLIYKVSNRDSGVPDRFSGSGSGTDFTLIISRVEAEDVGLYYCMQGTHWPPTFGGGTKVEIK
Out: < 6.00

In: Now this one: H4H6317P: anti-big-ET-1 antibody, human IgG4 Fc; HCVR/LCVR SEQ ID NO: 130/138 (antibody, V domains shown, human IgG4 Fc) VH: QVQLVESGGGVVQPGRSLRLSCAASGFTFSSYGMHWVRQAPGKGLEWVAVLWYDGRNKYYADSVKGRFTISRDNSKNTLYLQMNSLRAEDTAVYYCARSYDAFDIWGQGTMVTVSS VL: DIQMTQSPSTLSASVGDRVTITCRASQSISSWLAWFQQGPGRAPKLLIYKASTLQSGVPSRFSGSGSGTEFTLTISSLQPDDFATYYCQQYRSYSPTFGQGTKVEIK
Out: < 6.00

Hello, the source for this data is patent US9751932B2, in case you need it.
